target: Kdr (Homo sapiens); construct: Kinases are expressed as either kinase domains or full length constructs; made in house; test: Kinase inhibition assay (33P transfer), Kdr; assay type: biochemical; settings: Table 3; read-out: KDR-1
Sequence (P35968 20-1356, species assumed): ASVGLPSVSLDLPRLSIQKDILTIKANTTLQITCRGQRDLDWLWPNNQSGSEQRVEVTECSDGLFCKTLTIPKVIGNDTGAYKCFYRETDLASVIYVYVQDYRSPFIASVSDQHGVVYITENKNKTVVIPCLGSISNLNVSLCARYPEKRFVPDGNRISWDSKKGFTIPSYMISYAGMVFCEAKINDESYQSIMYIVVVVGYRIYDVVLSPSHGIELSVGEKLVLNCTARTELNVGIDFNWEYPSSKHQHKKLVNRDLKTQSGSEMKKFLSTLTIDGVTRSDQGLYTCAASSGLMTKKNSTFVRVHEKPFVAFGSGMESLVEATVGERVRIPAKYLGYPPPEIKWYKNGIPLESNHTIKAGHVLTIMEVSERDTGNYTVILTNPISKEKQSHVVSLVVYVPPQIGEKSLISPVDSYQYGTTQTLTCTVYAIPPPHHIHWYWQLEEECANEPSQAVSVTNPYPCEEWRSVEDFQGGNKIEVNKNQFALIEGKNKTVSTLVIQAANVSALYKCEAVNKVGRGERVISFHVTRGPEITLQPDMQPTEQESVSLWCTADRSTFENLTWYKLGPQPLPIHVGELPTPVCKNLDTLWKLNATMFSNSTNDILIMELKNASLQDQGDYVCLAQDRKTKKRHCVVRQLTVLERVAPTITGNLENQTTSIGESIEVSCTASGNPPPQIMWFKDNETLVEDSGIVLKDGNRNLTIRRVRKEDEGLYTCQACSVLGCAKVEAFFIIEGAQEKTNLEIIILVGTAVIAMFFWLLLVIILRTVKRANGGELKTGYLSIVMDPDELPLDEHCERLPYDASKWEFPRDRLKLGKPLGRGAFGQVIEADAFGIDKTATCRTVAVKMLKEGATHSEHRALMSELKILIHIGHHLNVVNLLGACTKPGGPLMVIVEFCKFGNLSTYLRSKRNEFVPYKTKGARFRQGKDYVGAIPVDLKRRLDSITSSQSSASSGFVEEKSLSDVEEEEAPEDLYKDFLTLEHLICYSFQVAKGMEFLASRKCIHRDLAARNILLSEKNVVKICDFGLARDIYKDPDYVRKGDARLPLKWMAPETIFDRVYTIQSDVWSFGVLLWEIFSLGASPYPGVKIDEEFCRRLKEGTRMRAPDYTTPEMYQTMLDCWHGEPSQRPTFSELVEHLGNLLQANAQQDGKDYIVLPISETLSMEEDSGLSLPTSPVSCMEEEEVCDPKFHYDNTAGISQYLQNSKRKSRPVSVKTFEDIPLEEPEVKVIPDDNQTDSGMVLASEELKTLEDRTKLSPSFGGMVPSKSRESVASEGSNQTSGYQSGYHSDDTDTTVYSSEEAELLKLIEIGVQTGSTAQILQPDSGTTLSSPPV
pIC50: −log10 of the molar value.
property name: pIC50

Solved cases below.
COCCOc1ccc(Nc2ncnc(Nc3cc(-c4ccco4)n[nH]3)n2)cc1OCCOC : > 6.07
O=C(Nc1ccc(Nc2ncnc(-n3c(=O)[nH]c4ccccc43)n2)cc1)O[C@@H]1CCOC1 : 5.26 to 6.03
NC(=O)[C@H](CO)Nc1ncnc(-n2c(=O)[nH]c3ccccc32)n1 : < 4.85

Name the recorded pIC50 of the item COCCOc1ccc(Nc2ncnc(-c3ccccc3)n2)cc1 in your answer.
< 4.86

Name the recorded pIC50 of the item COc1cccc(Nc2ncnc(Nc3ccc(OCc4ccccc4)cc3)n2)c1 in your answer.
< 4.95

Name the recorded pIC50 of the item FC(F)(F)c1ccc(Cl)c(Nc2ncnc(-n3cccc3)n2)c1 in your answer.
< 4.88

Name the recorded pIC50 of the item COc1ccc(Nc2ncnc(Nc3cccc(Br)c3)n2)cc1OC in your answer.
< 4.95

Name the recorded pIC50 of the item COc1cc(Nc2ncnc(-n3c(Nc4ccc(C)cc4)nc4ccccc43)n2)cc(OC)c1OC in your answer.
> 6.08

###

biological target: c-Met (Homo sapiens, UniProt P08581); construct: Kinases are expressed as either kinase domains or full length constructs; made in house; assay: Kinase inhibition assay (33P transfer), c-Met; type: biochemical; conditions: Table 2, kinase inhibition class; read-out: Met-1
Sequence (P08581 25-1390): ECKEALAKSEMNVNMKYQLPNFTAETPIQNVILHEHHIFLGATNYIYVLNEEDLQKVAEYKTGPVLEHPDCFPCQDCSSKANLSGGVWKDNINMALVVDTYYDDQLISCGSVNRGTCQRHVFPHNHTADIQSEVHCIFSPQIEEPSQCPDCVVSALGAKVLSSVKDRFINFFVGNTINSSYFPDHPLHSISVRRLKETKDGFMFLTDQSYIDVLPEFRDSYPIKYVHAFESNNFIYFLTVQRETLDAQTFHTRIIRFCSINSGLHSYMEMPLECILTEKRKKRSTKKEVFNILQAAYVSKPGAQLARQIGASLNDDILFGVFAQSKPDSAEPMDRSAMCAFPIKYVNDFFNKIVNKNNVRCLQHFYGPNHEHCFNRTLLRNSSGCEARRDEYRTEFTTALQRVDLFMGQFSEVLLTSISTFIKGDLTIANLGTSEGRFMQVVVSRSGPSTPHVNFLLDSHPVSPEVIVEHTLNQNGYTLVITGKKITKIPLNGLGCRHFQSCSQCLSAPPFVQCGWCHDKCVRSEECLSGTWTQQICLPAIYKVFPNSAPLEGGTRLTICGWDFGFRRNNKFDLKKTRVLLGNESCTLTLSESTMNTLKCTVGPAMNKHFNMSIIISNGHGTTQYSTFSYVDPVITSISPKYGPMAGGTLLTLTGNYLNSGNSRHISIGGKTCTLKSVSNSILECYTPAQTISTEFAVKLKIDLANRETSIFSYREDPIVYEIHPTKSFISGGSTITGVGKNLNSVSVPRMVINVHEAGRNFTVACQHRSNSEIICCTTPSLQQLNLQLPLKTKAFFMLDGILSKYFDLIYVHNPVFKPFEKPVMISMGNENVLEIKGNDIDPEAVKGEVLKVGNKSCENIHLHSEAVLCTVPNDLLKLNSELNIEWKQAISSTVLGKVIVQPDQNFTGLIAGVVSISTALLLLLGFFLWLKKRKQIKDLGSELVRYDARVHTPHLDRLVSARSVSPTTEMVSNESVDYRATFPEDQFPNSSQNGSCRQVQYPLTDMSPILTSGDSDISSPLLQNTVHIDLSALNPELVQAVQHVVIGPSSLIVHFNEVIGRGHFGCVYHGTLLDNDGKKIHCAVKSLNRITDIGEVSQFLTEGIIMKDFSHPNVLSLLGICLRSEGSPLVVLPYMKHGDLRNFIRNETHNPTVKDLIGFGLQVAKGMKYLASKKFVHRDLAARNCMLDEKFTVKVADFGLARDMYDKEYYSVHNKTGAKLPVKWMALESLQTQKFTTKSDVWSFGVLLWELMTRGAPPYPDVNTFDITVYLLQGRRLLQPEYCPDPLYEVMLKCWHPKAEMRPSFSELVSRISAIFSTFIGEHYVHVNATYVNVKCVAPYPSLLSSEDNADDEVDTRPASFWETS
Recorded IC50 by entry

Solved cases below.
Nc1ncnc(-n2c(N)nc3ccccc32)n1 [Compound 646] : > 19.8 µM
CN(c1cccc(Cl)c1)c1ncnc(Cl)n1 [Compound 701] : > 17.6 µM
COc1ccc(Nc2nc3ccccc3n2-c2ncnc(Nc3cc(OC)c(OC)c(OC)c3)n2)cc1 [Compound 397] : > 9.01 µM
COc1cc(Nc2ncnc(Nc3cccc(Br)c3)n2)cc(OC)c1OC [Compound 75] : 8.1 to 10.4 µM
COc1cc(Nc2ncnc(-c3cccnc3N)n2)cc(OC)c1OC [Compound 1091] : 9.88 to 12.7 µM

Name the recorded IC50 of the item NC(=O)c1ccc(Nc2ncnc(-c3cccnc3NCc3ccccc3)n2)cc1 [Compound 1082] in your answer.
8.81 to 11.3 µM

###

Molecular target: EGFR (Homo sapiens, UniProt P00533)
Construct: Kinases are expressed as either kinase domains or full length constructs; made in house
Sequence (P00533 25-1210, species assumed): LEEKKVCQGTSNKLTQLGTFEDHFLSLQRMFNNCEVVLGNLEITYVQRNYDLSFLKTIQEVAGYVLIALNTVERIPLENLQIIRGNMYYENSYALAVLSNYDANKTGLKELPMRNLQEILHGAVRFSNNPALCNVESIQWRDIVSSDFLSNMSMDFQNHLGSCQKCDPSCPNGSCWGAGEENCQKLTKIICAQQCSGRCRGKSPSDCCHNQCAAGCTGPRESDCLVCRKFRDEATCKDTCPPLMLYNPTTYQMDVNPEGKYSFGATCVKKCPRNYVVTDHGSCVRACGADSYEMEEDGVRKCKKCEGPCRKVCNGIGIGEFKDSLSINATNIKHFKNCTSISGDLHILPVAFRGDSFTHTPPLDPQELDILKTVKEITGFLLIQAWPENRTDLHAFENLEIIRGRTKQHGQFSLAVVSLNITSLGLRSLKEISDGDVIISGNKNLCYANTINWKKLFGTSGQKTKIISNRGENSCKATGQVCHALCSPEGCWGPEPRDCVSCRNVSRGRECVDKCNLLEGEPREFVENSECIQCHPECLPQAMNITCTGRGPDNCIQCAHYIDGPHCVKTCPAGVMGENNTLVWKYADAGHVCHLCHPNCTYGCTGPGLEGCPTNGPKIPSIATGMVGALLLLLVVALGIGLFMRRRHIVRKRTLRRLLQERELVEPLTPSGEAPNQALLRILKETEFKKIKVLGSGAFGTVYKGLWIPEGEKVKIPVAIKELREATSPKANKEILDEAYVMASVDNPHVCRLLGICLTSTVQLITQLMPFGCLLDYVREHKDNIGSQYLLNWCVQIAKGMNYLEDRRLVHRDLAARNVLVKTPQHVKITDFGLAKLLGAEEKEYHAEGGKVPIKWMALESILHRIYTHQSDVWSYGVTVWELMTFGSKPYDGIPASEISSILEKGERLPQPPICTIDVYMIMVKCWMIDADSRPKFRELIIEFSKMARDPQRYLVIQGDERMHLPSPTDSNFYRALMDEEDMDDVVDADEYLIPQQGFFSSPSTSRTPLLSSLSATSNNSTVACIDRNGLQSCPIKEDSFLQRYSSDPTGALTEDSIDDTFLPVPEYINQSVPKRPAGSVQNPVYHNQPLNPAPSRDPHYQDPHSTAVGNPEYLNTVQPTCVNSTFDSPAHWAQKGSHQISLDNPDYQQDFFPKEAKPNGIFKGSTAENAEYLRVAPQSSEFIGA
Assay: Kinase inhibition assay (33P transfer), EGFR
Assay type: biochemical
Details: Table 2, kinase inhibition class; read-out: EGFR-1
Experimental: The inhibitor compounds described herein are screened in the following manner. […] Kinases are expressed as either kinase domains or full length constructs fused to glutathione S-transferase (GST) or polyHistidine tagged fusion proteins in either E. colior Baculovirus-High Five expression systems. […] Kinase activity and inhibition are measured essentially by established protocols (Braunwalder et al., 1996). […]
Recorded IC50 by entry

Solved cases below.
COc1cc(Nc2ncnc(Nc3ccc(C(N)=O)cc3)n2)cc(OC)c1OC [Compound 33] : > 11.4 µM
COc1ccc(Nc2ncnc(Nc3ccc4[nH]ccc4c3)n2)cc1OC [Compound 115] : < 1.1 µM
CCN(CC)CCOc1cc(Nc2ncnc(Nc3cc(OC)c(OC)c(OC)c3)n2)ccc1OC [Compound 600] : > 9.03 µM
N#Cc1ccc(Nc2ncnc(-c3cccs3)n2)cc1 [Compound 356] : > 16.1 µM

Name the recorded IC50 of the item COc1ccc(Nc2ncnc(N(CC(=O)OC(C)(C)C)c3ccc4c(c3)OCO4)n2)cc1OC [Compound 310] in your answer.
0.831 to 4.98 µM
